Consider the following sequences; for each one, report its apparent KD of MS2 coat protein.
test system: MS2 coat protein; test: apparent KD of MS2 coat protein; designed switch direction (-1 OFF switch, 1 ON switch): -1; higher = weaker reporter binding; conditions: Eterna round: R95; input ligand: microRNA oligo, concentration not stated
Answers are plain numbers, in µM.

UCUUUGUGAGGAUAUCAGUAGUAAAUAAAUAAAAUUACUACUGAGAAGGCACAUGAGGAUCACCCAUGUUCCUU [salish99_ex3_r3_091] (puzzle: Exclusion 4) :: 0.0135
GCCGGAGCAGGAUAUUCAAUAUCACACAUGAGGAUCACCCAUGUCCAGCGAAAGCUGGAGGGAGAAGGGCUCUGGC [Fiskers Ex 5 - 15] (puzzle: Exclusion 5) :: 0.0561
GAGUGACAUGAGGAUCACCCAUGUGAGGAUAUCGGACGGACCUUGUUGGCUUCCGCCGCGAGAAGGCACCUCGG [Exclusion 1 V27] (puzzle: Exclusion 1) :: 0.0325
UGUAGGUCUACCUUGGUGGAUCUGCAUUUUUGCAGGUGUACAUGAGGAUCACCCAUGUCCUCAUUUGCUCGUCUUAU [JL turnoff v2 99.31] (puzzle: Sensor v3, turn-off variant 2) :: 0.56
GGGUGACAUGAGGAUCACCCAUGUCAGGAUAUGAUACUAUGUACUUCGGUACAUAGUAUCAGAAGGGACAUCCC [Ex1-3: 16] (puzzle: Exclusion 1) :: 0.0418
UAGGAGUCAGGAUAUGCGAGAGAUUGAAGUAUGGGAUGUGAGCAGAAGGGACAUGAGGAUCACCCAUGUAUGGA [JR_Exclu4_Sub093] (puzzle: Exclusion 4) :: 0.146
GGUUGGCGAGGAUAUACAUGAGGAUCACCCAUGUGAGAGUAAAAAGUGAGGAAGAAAAGUAGAAGGCGCUGACG [salish99_ex3_r3_011] (puzzle: Exclusion 3) :: 0.0363
CUUGUACAUGAGGAUCACCCAUGUUAGGAUAUCUCGCCGUCGGCUUGCCGACGGUAUUAGAGAAGGGACAAGGG [JL Tixe mod 7] (puzzle: Exclusion 1) :: 0.0186

// for each sequence below, give its apparent KD of MS2 coat protein
1. GAUUGACAUGAGGAUCACCCAUGUGAGGAUAUCGGCUGGACCGUGUUGGCGUGCCUCUCGAGAAGGCGCAUAGG [Exclusion 1 V54] (puzzle: Exclusion 1)
2. AAUCUGUGAGGAUAUGGUGAGUAGUGCCUGAGCGCUGCUCACCAGAAGGCACAUGAGGAUCACCCAUGUAUGAA [Mat - Exclusion 4 - Mod of JL - D3] (puzzle: Exclusion 4)
3. GAGAAAGCAAGCAAGUGAAACAUGAGGAUCACCCAUGUCCUCAUUUGCUCGUCUUAUAAAAGCUAUCGAAAGAUAGC [Mat - Sensor v3 - turn-off var 1 - Eli Mod - D48] (puzzle: Sensor v3, turn-off variant 1)

Outgoing:
[0.0399, 0.028, 0.139]

# map each sequence to its apparent KD of MS2 coat protein
1. GUGUAGAUAGGAUAUGCAUAGAGCUUACGAAAGUAGGCUCUACAUGAGGAUCACCCAUGUAGAAGGGUCUACAC [Dot plot directed A v15] (puzzle: Exclusion 2)
2. GCCAGAGCAGGAUAUUCAAUAUCUCACAUGAGGAUCACCCAUGUCCAGCGAAAGCUGGAGGGAGAAGGGCUCUGGC [Fiskers Ex 5 - 9] (puzzle: Exclusion 5)
3. AGGUAACAUGAGGAUCACCCAUGUCAGGAUAUCAGUAAGAGGAGGAUAGAAUAGAGUAUGAGAAGGGACUAUAU [Excluse me! 23 - Jieux - Exclusion 1] (puzzle: Exclusion 1)

Outgoing:
[0.025, 0.0573, 0.0407]

Take each entry in turn and give its apparent KD of MS2 coat protein.
1. GUGGUACAUGAGGAUCACCCAUGUUAGGAUAUCGCGUGAGGUUUUACUUACACACACACGAGAAGGGACGUCUU (puzzle: Exclusion 1)
2. CCAGGCAGUGUGAGGAUAUGCUGGUCCUUGGAUCAGCAGAAGGCACAUGAGGAUCACCCAUGUGAAUAGCUUGG [JL bmx4 3.25] (puzzle: Brourd's mod of Exclusion 4)
3. AAUUACAAGCAAAGAUCUUACAUGAGGAUCACCCAUGUGCUCGUUUUAUAAAGUACUAUCACGAAAGUGAUAGUACA [Mat - Sensor v3 - turn-off var 1 - Eli Mod - D95] (puzzle: Sensor v3, turn-off variant 1)
4. GGUUGGCGAGGAUAUACAUGAGGAUCACCCAUGUGAGAGAAAUAAGUGAGGAAGAAAAGUAGAAGGCGCUGACG [salish99_ex3_r3_014] (puzzle: Exclusion 3)
5. GGUAGAGAGCAGGAUAUCUUGGGUAAGUAUCGUAGAGAAGGGCUCACAUGAGGAUCACCCAUGUGGUCCAAGAU [JL Dibiri mod 05] (puzzle: Exclusion 6)
6. UGUACUAACACGUAAGUGUUAGUACUAUAAGCUUGUGUUACAUGAGGAUCACCCAUGUCCUCAUAAGCUCGUCUUAA [Mat - Sensor v3 - Turn-off var 2 - D72] (puzzle: Sensor v3, turn-off variant 2)

Outgoing:
0.0432
0.0205
0.0909
0.0594
0.0142
0.182

###

test system: MS2 coat protein; assay: apparent KD of MS2 coat protein; designed switch direction (-1 OFF switch, 1 ON switch): -1; higher = weaker reporter binding; conditions: Eterna round: R95; input ligand: microRNA oligo, concentration not stated
apparent KD of MS2 coat protein below 200 nM gives No; apparent KD of MS2 coat protein at or above it gives Yes.

For orientation, consider the following solved cases.
AAACGUGCGAAGGAUAUCCAUCCACCCUGGAAAGGAGAAGGUCGCACAUGAGGAUCACCCAUGUGUGCCUAAAA [Zalave] (puzzle: Exclusion 6) :: No
UAAAAGGUAGGAUAUACGAAAAAAAAGGGUAGAAAAAAAACACAUGAGGAUCACCCAUGUAGAAGGACCAAAAG [salish99_ex2_r3_048] (puzzle: Exclusion 2) :: No
UUUUUCGUUUAAGCUUCGUACAUGAGGAUCACCCAUGUUUUUAGUUCUGUGUUGGUCAGUAUGGAAGUUCGUCUUAU [JR_SV3TOV1_Sub089] (puzzle: Sensor v3, turn-off variant 1) :: No

Incoming: Hi, just wondering whether AGUAACCGUCACGAAAGUGAUGGUUACACAAGCAAAUGUACAUGAGGAUCACCCAUGUCCUCAAUUGCUCGUCUUAU [Sensor 3 - 50] (puzzle: Sensor v3, turn-off variant 2) shows apparent KD of MS2 coat protein of 200 nM or higher.
Outgoing: No

Incoming: Form field: apparent KD of MS2 coat protein at least 200 nM? Entry: AGAUGUAGAUACCGAUCCUACAUGAGGAUCACCCAUGUAGCUAGACGUGCGGGCGGCGCUCGUCAGACUACCAGUAG [salish99_TOv1_r3_094] (puzzle: Sensor v3, turn-off variant 1)
Outgoing: Yes

Incoming: Does the reported apparent KD of MS2 coat protein for UUUAAUUUUUUUUUUUUACAAGCUUUUUGCUCGUCUUAUACAUGAGGAUCACCCAUGUAAAUGGAGGAUAAAUUAUC [JMF 29] (puzzle: Sensor v3, turn-off variant 2) fall at or above the 200 nM mark?
Outgoing: No

Incoming: Exam item: decide whether the reported apparent KD of MS2 coat protein for AGUAACUAUCACGAAAGUGAUAGUUACGCAAGCAGUGAAACAUGAGGAUCACCCAUGUCCUCAUUUGCUCGUCUUAU [Sensor 3 - 26] (puzzle: Sensor v3, turn-off variant 2) is at least 200 nM.
Outgoing: Yes

Incoming: Hi, just wondering whether GAUUGACAUGAGGAUCACCCAUGUGAGGAUAUCGGCUGGACCGUGUUGGCUUGCUUCUCGAGAAGGCGCAUAGG [Exclusion 1 V51] (puzzle: Exclusion 1) shows apparent KD of MS2 coat protein of 200 nM or higher.
Outgoing: No

###

Please go through the items and note down their apparent KD of MS2 coat protein.
test system: MS2 coat protein; assay: apparent KD of MS2 coat protein; designed switch direction (-1 OFF switch, 1 ON switch): -1; higher = weaker reporter binding; conditions: input ligand: FMN 200 uM
Answers are plain numbers, in nM.

UAUUAGCAAGUGAGAUCCGACAUGAGGAUCACCCAUGUGCUCGUCUUAUAAGGUACUGUGACAAAAGUCACGGUACC [Elimod 2 - Jieux - Sensor, turn-off variant 1] (Eterna round: R97, puzzle: Sensor, turn-off variant 1) :: 200

Incoming: Output apparent KD of MS2 coat protein of UAUUAAACAAGCAGGUCCCACAUGAGGAUCACCCAUGUGCUCGUCUUAUAAGGUACUGUGAUGAAAGUUACGGUACC [Elimod 17 - Jieux - Sensor, turn-off variant 1] (Eterna round: R97, puzzle: Sensor, turn-off variant 1)
Outgoing: 36.4
